pIC50: −log10 of the molar value.
Parameter pIC50, tested on AChE from Electrophorus electricus (electric eel) (Electrophorus electricus), listed per item.
Sequence (O42275 24-633): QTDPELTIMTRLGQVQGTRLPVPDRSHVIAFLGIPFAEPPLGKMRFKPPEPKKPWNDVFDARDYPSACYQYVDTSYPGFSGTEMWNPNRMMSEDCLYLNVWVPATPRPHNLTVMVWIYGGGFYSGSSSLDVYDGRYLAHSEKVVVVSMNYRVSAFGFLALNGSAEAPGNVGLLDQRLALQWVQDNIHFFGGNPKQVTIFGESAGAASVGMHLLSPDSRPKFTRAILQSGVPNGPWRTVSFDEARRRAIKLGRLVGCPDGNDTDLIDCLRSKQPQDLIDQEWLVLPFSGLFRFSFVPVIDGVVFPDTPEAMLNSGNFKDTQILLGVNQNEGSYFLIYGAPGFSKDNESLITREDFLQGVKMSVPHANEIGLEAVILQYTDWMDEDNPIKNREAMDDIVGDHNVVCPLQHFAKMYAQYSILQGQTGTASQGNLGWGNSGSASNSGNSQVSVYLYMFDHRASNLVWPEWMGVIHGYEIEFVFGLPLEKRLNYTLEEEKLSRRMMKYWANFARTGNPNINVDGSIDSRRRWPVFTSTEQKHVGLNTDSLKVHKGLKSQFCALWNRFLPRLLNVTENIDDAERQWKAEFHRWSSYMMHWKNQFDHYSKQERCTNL

STRUCTURE NOTATION	pIC50
COc1cccc(C(=O)Nc2ccc(NC(=O)c3cccc(OC)c3)cc2)c1	7.25
COc1cc(C(=O)Nc2ccc(NC(=O)c3cc(OC)c(OC)c(OC)c3)cc2)cc(OC)c1OC	7.17
COc1ccc(C(=O)Nc2ccc(NC(=O)c3ccc(OC)c(OC)c3)cc2)cc1OC	7.15
COc1cc(OC)cc(C(=O)Nc2cccc(NC(=O)c3cc(OC)cc(OC)c3)c2)c1	5.59
COc1cc(CNC(=O)c2cc(OC)c(OC)c(OC)c2)cc(OC)c1OC	5.93
COc1cc(C(=O)Nc2cccc([N+](=O)[O-])c2)cc(OC)c1OC	6.17
COc1cc(NC(=O)c2cc(OC)c(OC)c(OC)c2)cc(OC)c1OC	6.96
COc1cc(OC)cc(C(=O)Nc2ccc(NC(=O)c3cc(OC)cc(OC)c3)cc2)c1	6.72
COc1cccc(C(=O)Nc2cccc(NC(=O)c3cccc(OC)c3)c2)c1	5.92
COc1ccc(C(=O)Nc2cccc(NC(=O)c3ccc(OC)c(OC)c3)c2)cc1OC	6.39
COc1cc(C(=O)Nc2cccc(NC(=O)c3cc(OC)c(OC)c(OC)c3)c2)cc(OC)c1OC	6.11
